Listed below: GI50 values for each entry.
- Tested on: BT-549 breast
- assay explanation: NCI tumour cell line growth inhibition, 48 h

Observe how each entry below is paired with its result.
compound	value observed
N=C(N)c1ccc(-c2ccc(-c3cc(Cl)cc(Cl)c3)s2)s1	4.37 µM
CSc1ccc(N(C)c2nc(C)nc3c2CCC3)cc1	< 0.01 µM

Can you look up the measured GI50 of CC(C)Oc1ccc(C(=O)Cn2ccnc2)cc1-n1c(CN2CCN(C(=O)COc3ccc(Cl)cc3)CC2)nc2ccccc2c1=O for me?
13.5 µM

Can you look up the measured GI50 of O=C(c1cccs1)C1NO[N+]([O-])=C1c1cccs1 (stereo unspecified) for me?
9.41 µM

Can you look up the measured GI50 of COc1ccc(-c2cnoc2-c2cc(OC)c3c(c2)OCCO3)cc1 for me?
0.073 µM

Can you look up the measured GI50 of CCOC(=O)N1CCN(CCCCCOc2ccccc2C2CCCCC2)CC1 for me?
3 µM

From: PubChem BioAssay (NCI)
